Just for reference, the Human Domainome abundance scans (Beltran et al. 2025) is where these values come from.

B1: 1-phosphatidylinositol 4,5-bisphosphate phosphodiesterase gamma-2, residues 772 to 827; numbered along this chain, P16885 (parent)
chain: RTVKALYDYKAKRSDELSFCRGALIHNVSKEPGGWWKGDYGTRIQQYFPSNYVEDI

Variants of: B1
protocolDescription: abundance fitness (aPCA) (normalised: wild type 0, dead -1); higher = more abundant; growth selection in yeast, the domain comes from the species named
recordedConditions: Homo sapiens
Each item that follows carries a reported abundance fitness.
A bare number is all that is needed in reply.

Look over these answered cases.
RTVKALYDYKAKRSDELSFCKGALIHNVSKEPGGWWKGDYGTRIQQYFPSNYVEDI; -0.247
RTVKALYDYKAKRSDELSFCRGALIHNVSLEPGGWWKGDYGTRIQQYFPSNYVEDI; -0.169
RTVKALYDYKAQRSDELSFCRGALIHNVSKEPGGWWKGDYGTRIQQYFPSNYVEDI; -0.077
RTVKALYDYKAKRSDELSFCRGALIHNVSKEPGGWWKGYYGTRIQQYFPSNYVEDI; -0.31
RTVKALYDYKEKRSDELSFCRGALIHNVSKEPGGWWKGDYGTRIQQYFPSNYVEDI; -0.775

Request: Report measured abundance fitness; entry is RTVKALYDYKAKRSDELSFCRGALIHNVSKEPSGWWKGDYGTRIQQYFPSNYVEDI
Result: -0.114

Request: Report measured abundance fitness; entry is RTVKALYDYKAKRSDELSFCRGALIHAVSKEPGGWWKGDYGTRIQQYFPSNYVEDI
Result: -0.56

Request: Report measured abundance fitness; entry is RTVFALYDYKAKRSDELSFCRGALIHNVSKEPGGWWKGDYGTRIQQYFPSNYVEDI
Result: -0.393
